test: PK study on dogs of rifaximin prepared by spray drying; type: in vivo, dog (beagle); settings: female, beagle, dog, blood, po, 100 mg/kg; read-out: AUC0-24 h, mean (±standard error)

[
  {
    "molecule": "CO[C@H]1/C=C/O[C@@]2(C)Oc3c(C)c(O)c4c(O)c(c5c(nc6cc(C)ccn65)c4c3C2=O)NC(=O)/C(C)=C\\C=C\\[C@H](C)[C@H](O)[C@@H](C)[C@@H](O)[C@@H](C)[C@H](OC(C)=O)[C@@H]1C [Example 1, rifaximin]",
    "AUC(0-t) [ng·h/mL]": 2850
  }
]

Sourced from patent US9498442B2
